Experiment: Oral bioavailability in mouse
Assay type: ADME, organism-based
Conditions: in vivo
quantity: bioavailability (%)

>>> reported_value("CN[C@@H](C)C(=O)N[C@@H]1C(=O)N(Cc2c(C)ccc3ccccc23)c2ccc(C#N)cc2N(C(C)=O)[C@H]1C")
28

----------
Each item that follows carries a reported remaining at 4 h.
Assay: Stability in rat blood assessed as parent compound remaining after 4 hrs
Format: ADME, tissue-based
Conditions: read-out: Stability
quantity: remaining at 4 h (%)

>>> reported_value("CN[C@@H](C)C(=O)N[C@H]1CCc2ccccc2N(Cc2c(OC)ccc3cc(Br)ccc23)C1=O")
40
>>> reported_value("CN[C@@H](C)C(=O)N[C@H]1COc2ccccc2N(Cc2c(OC)ccc3cc(Br)ccc23)C1=O")
7
>>> reported_value("CN[C@@H](C)C(=O)NC1C(=O)N(Cc2c(OC)ccc3cc(Br)ccc23)c2ccccc2CC12CCOCC2 (stereo partly drawn)")
88

----------
Assay: Plasma clearance in mouse at iv dose
Assay type: ADME, organism-based
Each item that follows carries a reported log10 of clearance.
quantity: log10 of clearance (log10 of the value in mL/min/kg)

>>> reported_value("CN[C@@H](C)C(=O)NC1C(=O)N(Cc2c(OC)ccc3cc(Br)ccc23)c2ccccc2CC12CCOCC2 (stereo not given in full)")
1.78
>>> reported_value("CN[C@@H](C)C(=O)N[C@H]1COc2ccccc2N(Cc2c(OC)ccc3cc(Br)ccc23)C1=O")
2.72
>>> reported_value("CN[C@@H](C)C(=O)NC1C(=O)N(Cc2c(C#N)n(-c3ccccc3C#N)c3ccccc23)c2ccccc2CC12CCOCC2 (stereo not given in full)")
1.61
>>> reported_value("CN[C@@H](C)C(=O)N[C@H]1CCc2ccccc2N(Cc2c(OC)ccc3cc(Br)ccc23)C1=O")
2.19
>>> reported_value("CN[C@@H](C)C(=O)N[C@@H]1C(=O)N(Cc2c(C)ccc3ccccc23)c2ccc(C#N)cc2N(C(C)=O)[C@H]1C")
0.63

----------
Biological target: E3 ubiquitin-protein ligase XIAP (Homo sapiens, UniProt P98170)
Sequence (P98170 whole entry, the tested form may be a part): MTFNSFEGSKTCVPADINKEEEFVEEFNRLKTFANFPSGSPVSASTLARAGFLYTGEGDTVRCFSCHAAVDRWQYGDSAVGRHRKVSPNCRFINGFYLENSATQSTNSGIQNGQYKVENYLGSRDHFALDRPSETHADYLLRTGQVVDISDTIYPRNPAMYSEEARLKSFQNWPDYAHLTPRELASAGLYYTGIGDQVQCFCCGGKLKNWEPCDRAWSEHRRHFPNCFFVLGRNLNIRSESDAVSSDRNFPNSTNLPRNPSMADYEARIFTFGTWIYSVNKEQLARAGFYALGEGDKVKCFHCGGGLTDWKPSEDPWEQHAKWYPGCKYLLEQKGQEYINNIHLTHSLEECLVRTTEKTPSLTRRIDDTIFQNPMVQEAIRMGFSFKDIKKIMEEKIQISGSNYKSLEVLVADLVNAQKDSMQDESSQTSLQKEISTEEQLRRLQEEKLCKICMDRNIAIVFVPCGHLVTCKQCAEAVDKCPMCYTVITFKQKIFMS
Assay: Inhibition of XIAP-BIR2 domain (unknown origin)
quantity: IC50 (nM)

>>> reported_value("CN[C@@H](C)C(=O)NC1C(=O)N(Cc2c(C#N)n(-c3ccccc3C#N)c3ccccc23)c2ccccc2CC12CCOCC2 (stereo partly drawn)")
39
>>> reported_value("CN[C@@H](C)C(=O)N[C@H]1CCc2ccccc2N(Cc2c(OC)ccc3cc(Br)ccc23)C1=O")
194
>>> reported_value("CN[C@@H](C)C(=O)NC1C(=O)N(Cc2c(OC)ccc3cc(Br)ccc23)c2ccccc2CC12CCOCC2 (stereo partly drawn)")
65

Data provenance: ChEMBL document CHEMBL4619711
